- assaySummary: Caco-2 cell permeability
- experimentalParameters: human
Simple rule here: Papp less than 5 ×10⁻⁶ cm/s is criterion met, otherwise criterion not met.

Take a look at these entries with their results.
In [3]: df
Out[3]:
                                   molecule   qualitativelabel
0  CC1(C)CN(c2ccc3nccc(C(=O)NCC(=O)N4CSC[C@H]4C#N)c3c2)CCO1  criterion not met
1  N#C[C@@H]1CSCN1C(=O)CNC(=O)c1ccnc2ccc(N3CC(C(F)F)C3)cc12  criterion not met
2  C[C@@H]1CCN(c2ccc3nccc(C(=O)NCC(=O)N4CSC[C@H]4C#N)c3c2)C1=O (single isomer, unassigned)  criterion not met
3  CC1(O)CN(c2ccc3nccc(C(=O)NCC(=O)N4CSC[C@H]4C#N)c3c2)C1      criterion met

Next molecule, please.
Exam item: Please determine if N#C[C@@H]1CSCN1C(=O)CNC(=O)c1ccnc2ccc(N3C[C@H](O)C(F)(F)C3)cc12 (mixture of isomers) is below 5 ×10⁻⁶ cm/s in terms of Papp.
Marked response: criterion met

* * *

- assaySummary: Kinetic solubility
- experimentalParameters: kinetic from dmso stock, Solubility, kinetic solubility; n = 1 or average of n = 2-3
reportedProperty: solubility (µM)
Lab book: enter the figure in µM, no units written.

Recorded solubility, per entry:
In [3]: df
Out[3]:
                                   compound  recordedresult
0  Cc1noc(C)c1-c1ccc2nccc(C(=O)NCC(=O)N3CSC[C@H]3C#N)c2c1 [Example 216]             710
1  N#C[C@@H]1CSCN1C(=O)CNC(=O)c1ccnc2ccc(N3CC(OC(F)F)C3)cc12 [Example 136]              21

Exam item: What solubility value was documented for this compound, CC(C)C1(O)CCN(c2ccc3nccc(C(=O)NCC(=O)N4CSC[C@H]4C#N)c3c2)CC1 [Example 192] ?
Marked response: 530

* * *

- assaySummary: Metabolic stability in rat hepatocytes (rHep)
- experimentalParameters: n = 1 or geometric mean of n = 2-3
rHep CLint for assorted compounds
Lab book: enter the figure in μL/min/1E6, no units written.

                                   compound  recordedresult
0  N#C[C@@H]1CSCN1C(=O)CNC(=O)c1ccnc2ccc(N3CCC4(CCOCC4)CC3)cc12 [Example 162]             3.4
1  N#C[C@@H]1CSCN1C(=O)CNC(=O)c1ccnc2ccc(N3CCC(F)(F)CC3)cc12 [Example 35]              64
2  N#C[C@@H]1CSCN1C(=O)CNC(=O)c1ccnc2ccc(-c3ccc(C(F)F)nc3)cc12 [Example 169]             8.8

Exam item: What rHep CLint value was documented for this compound, N#C[C@@H]1CSCN1C(=O)CNC(=O)c1ccnc2ccc(N3CCSCC3)cc12 [Example 3] ?
Marked response: 28

* * *

- testedTarget: FAP (Homo sapiens (Human))
- assaySummary: FAP plasma inhibition assay, human plasma
- Format: biochemical
- experimentalParameters: human plasma diluted 1:40, Ala-Pro-AMC 75 μM
- Sequence (Q12884 24-760): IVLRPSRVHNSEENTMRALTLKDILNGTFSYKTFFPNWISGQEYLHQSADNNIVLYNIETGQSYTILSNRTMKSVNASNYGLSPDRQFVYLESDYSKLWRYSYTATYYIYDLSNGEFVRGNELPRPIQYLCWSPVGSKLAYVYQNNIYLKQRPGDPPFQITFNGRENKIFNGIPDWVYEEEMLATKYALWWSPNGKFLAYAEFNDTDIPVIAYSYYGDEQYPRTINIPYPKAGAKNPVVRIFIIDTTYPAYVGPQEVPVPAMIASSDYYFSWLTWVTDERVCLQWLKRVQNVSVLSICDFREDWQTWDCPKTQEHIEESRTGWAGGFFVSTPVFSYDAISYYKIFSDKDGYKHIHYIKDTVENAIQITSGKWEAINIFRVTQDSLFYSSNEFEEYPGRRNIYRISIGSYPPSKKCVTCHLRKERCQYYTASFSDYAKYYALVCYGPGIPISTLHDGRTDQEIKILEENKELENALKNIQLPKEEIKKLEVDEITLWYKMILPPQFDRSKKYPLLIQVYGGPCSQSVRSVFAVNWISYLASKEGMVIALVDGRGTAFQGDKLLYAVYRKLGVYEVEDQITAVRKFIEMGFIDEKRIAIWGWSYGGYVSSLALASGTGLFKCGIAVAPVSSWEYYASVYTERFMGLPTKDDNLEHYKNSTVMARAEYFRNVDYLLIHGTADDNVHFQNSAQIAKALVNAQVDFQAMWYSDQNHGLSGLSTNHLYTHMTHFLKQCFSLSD
reportedProperty: IC50 (nM)
Lab book: enter the figure in nM, no units written.

Exam item: What IC50 value was documented for this compound, N#C[C@@H]1CSCN1C(=O)CNC(=O)c1ccnc2ccc(N3C[C@@H](F)[C@@H](F)C3)cc12 ?
Marked response: 0.3

Exam item: Now the compound N#C[C@@H]1CSCN1C(=O)CNC(=O)c1ccnc2ccc(N3CC(C(F)F)C3)cc12
Marked response: 0.2

Exam item: Now the compound N#C[C@@H]1CSCN1C(=O)CNC(=O)c1c(F)cnc2ccc(N3CCOCC3)cc12
Marked response: 8.1

Exam item: Now the compound CC1(C)CN(c2ccc3nccc(C(=O)NCC(=O)N4CSC[C@H]4C#N)c3c2)CCO1
Marked response: 0.2

Exam item: Now the compound N#C[C@@H]1CSCN1C(=O)CNC(=O)c1ccnc2ccc(N3CC4(COC4)C3)cc12
Marked response: 0.3

Exam item: Now the compound Cn1nccc1-c1ccc2nccc(C(=O)NCC(=O)N3CSC[C@H]3C#N)c2c1
Marked response: 0.2

Exam item: Now the compound CC(F)(F)C1CN(c2ccc3nccc(C(=O)NCC(=O)N4CSC[C@H]4C#N)c3c2)C1
Marked response: 0.1

Exam item: Now the compound N#C[C@@H]1CSCN1C(=O)CNC(=O)c1ccnc2ccc(N3CC(CF)C3)cc12
Marked response: 0.2

* * *

- testedTarget: FAP (Homo sapiens (Human), UniProt Q12884)
- assaySummary: hFAP inhibition assay
- Assay type: biochemical
- experimentalParameters: hFAP […], Ala-Pro-AMC 20 μM; n = 1 or geometric mean n = 2-3
- Sequence (Q12884 38-760): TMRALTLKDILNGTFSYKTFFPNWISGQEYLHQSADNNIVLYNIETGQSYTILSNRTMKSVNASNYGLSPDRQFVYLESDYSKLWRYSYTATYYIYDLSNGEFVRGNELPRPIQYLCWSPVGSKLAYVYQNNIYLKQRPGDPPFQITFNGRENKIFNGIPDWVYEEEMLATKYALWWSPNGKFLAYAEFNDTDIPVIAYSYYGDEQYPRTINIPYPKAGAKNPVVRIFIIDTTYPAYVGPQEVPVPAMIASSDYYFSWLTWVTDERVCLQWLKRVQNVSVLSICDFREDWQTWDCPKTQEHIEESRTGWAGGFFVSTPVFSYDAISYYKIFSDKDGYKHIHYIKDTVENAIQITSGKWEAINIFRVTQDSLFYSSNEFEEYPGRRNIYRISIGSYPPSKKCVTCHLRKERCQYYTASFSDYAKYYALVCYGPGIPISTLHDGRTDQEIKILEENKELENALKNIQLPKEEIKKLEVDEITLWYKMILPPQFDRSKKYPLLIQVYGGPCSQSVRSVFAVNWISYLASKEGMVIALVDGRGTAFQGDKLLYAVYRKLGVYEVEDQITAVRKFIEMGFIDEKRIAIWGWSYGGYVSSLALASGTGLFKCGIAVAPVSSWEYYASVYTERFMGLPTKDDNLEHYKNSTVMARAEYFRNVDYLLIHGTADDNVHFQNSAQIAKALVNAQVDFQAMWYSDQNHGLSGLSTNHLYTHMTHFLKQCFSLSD
reportedProperty: pIC50
The value called pIC50 is obtained by taking minus log10 of the concentration in mol/L.

Recorded pIC50, per entry:
>>> print(df.to_string())
                                   molecule  reportedproperty  recordedresult
0  N#C[C@@H]1CSCN1C(=O)CNC(=O)c1ccnc2ccc(N3CC(F)(F)C3)cc12             pIC50            9.51
1  N#C[C@@H]1CSCN1C(=O)CNC(=O)c1ccnc2ccc(N3C[C@@H]4[C@H](C3)[C@H]4C(F)(F)F)cc12             pIC50            9.66
2  N#C[C@@H]1CSCN1C(=O)CNC(=O)c1ccnc2ccc(N3CCOCC34CCC4)cc12             pIC50            9.68
3  N#C[C@@H]1CSCN1C(=O)CNC(=O)c1ccnc2ccc(N3CCCC[C@@H](F)C3)cc12             pIC50            9.57
4  N#C[C@@H]1CSCN1C(=O)CNC(=O)c1ccnc2ccc(N3CC(c4ccc(F)cc4)C3)cc12             pIC50            9.64

Exam item: What pIC50 value was documented for this molecule, CC1(C)Cc2c(-c3ccc4nccc(C(=O)NCC(=O)N5CSC[C@H]5C#N)c4c3)cnn2C1 ?
Marked response: 9.60

Exam item: Now the molecule CC(=O)N1CC2(C1)CN(c1ccc3nccc(C(=O)NCC(=O)N4CSC[C@H]4C#N)c3c1)C2
Marked response: 9.40

Exam item: Now the molecule C[C@@H]1CCCN1c1ccc2nccc(C(=O)NCC(=O)N3CSC[C@H]3C#N)c2c1
Marked response: 9.70

Exam item: Now the molecule COC[C@@H]1CCCN1c1ccc2nccc(C(=O)NCC(=O)N3CSC[C@H]3C#N)c2c1
Marked response: 9.54

Exam item: Now the molecule CC1CN(c2ccc3nccc(C(=O)NCC(=O)N4CSC[C@H]4C#N)c3c2)C1
Marked response: 9.39

* * *

hFAP Binding assay k(on) for assorted compounds
- testedTarget: hFAP (M39-A757) (Homo sapiens (Human), UniProt Q12884)
- assaySummary: hFAP binding assay (surface plasmon resonance)
- experimentalParameters: SPR, 20° C., single cycle kinetics
Lab book: enter the figure in M⁻¹ s⁻¹, no units written.

Recorded hFAP Binding assay k(on), per entry:
>>> df
                                   compound          reportedproperty  unitlabel  recordedresult
0  CC1(C)CCN(c2ccc3nccc(C(=O)NCC(=O)N4CSC[C@H]4C#N)c3c2)C1  hFAP Binding assay k(on)    M⁻¹ s⁻¹         1400000
1  CC1(C)Cc2c(-c3ccc4nccc(C(=O)NCC(=O)N5CSC[C@H]5C#N)c4c3)cnn2C1  hFAP Binding assay k(on)    M⁻¹ s⁻¹         3000000
2  CC1(CC(F)F)CN(c2ccc3nccc(C(=O)NCC(=O)N4CSC[C@H]4C#N)c3c2)C1  hFAP Binding assay k(on)    M⁻¹ s⁻¹         1200000
3  CC(=O)N1CC2(C1)CN(c1ccc3nccc(C(=O)NCC(=O)N4CSC[C@H]4C#N)c3c1)C2  hFAP Binding assay k(on)    M⁻¹ s⁻¹          950000
4  CCC1(O)CN(c2ccc3nccc(C(=O)NCC(=O)N4CSC[C@H]4C#N)c3c2)C1  hFAP Binding assay k(on)    M⁻¹ s⁻¹          910000

Exam item: Checklist item: hFAP Binding assay k(on) tested on hFAP (M39-A757) (Homo sapiens (Human), UniProt Q12884), entry N#C[C@@H]1CSCN1C(=O)CNC(=O)c1ccnc2ccc(N3CCOC[C@@H]3C(F)(F)F)cc12 (single isomer, unassigned) [Example 85] , value?
Marked response: 4000000

Exam item: Now the compound N#C[C@@H]1CSCN1C(=O)CNC(=O)c1ccnc2cc(Cl)c(N3CCOCC3)cc12
Marked response: 3200000

Exam item: Now the compound Cc1cc(C(F)(F)F)nn1-c1ccc2nccc(C(=O)NCC(=O)N3CSC[C@H]3C#N)c2c1
Marked response: 7900000

Exam item: Now the compound Cc1ncccc1-c1ccc2nccc(C(=O)NCC(=O)N3CSC[C@H]3C#N)c2c1
Marked response: 5400000

Exam item: Now the compound N#C[C@@H]1CSCN1C(=O)CNC(=O)c1ccnc2ccc(N3CC[C@@H](F)C3)cc12
Marked response: 6800000

Exam item: Now the compound CC1(C)COC12CN(c1ccc3nccc(C(=O)NCC(=O)N4CSC[C@H]4C#N)c3c1)C2
Marked response: 1400000

Exam item: Now the compound C[C@@H]1[C@@H](C)OCCN1c1ccc2nccc(C(=O)NCC(=O)N3CSC[C@H]3C#N)c2c1
Marked response: 1700000

Exam item: Now the compound CC(=O)NCC1(C)CN(c2ccc3nccc(C(=O)NCC(=O)N4CSC[C@H]4C#N)c3c2)C1
Marked response: 180000

Exam item: Now the compound C[C@@H]1CN(c2ccc3nccc(C(=O)NCC(=O)N4CSC[C@H]4C#N)c3c2)[C@H](C)CO1
Marked response: 2800000

Exam item: Now the compound N#C[C@@H]1CSCN1C(=O)CNC(=O)c1ccnc2ccc(N3C[C@@H]4CCC[C@@H]43)cc12 (mixture of isomers)
Marked response: 1200000

# credit: patent US20230312550A1
